The entries below come with measured insulin secretion stimulation values attached.
experiment: stimulators of insulin release from INS-1E, primary screen, cell-based, 5 mM glucose, NPC library (AID 1117329); settings: rat INS-1E insulin secretion, at 10 µM, stronger effect = higher value
Please reply with the bare figure in % and do not write the unit itself.

Reference set, count: 2
Cc1c(O)cccc1C(=O)N[C@@H](CSc1ccccc1)[C@H](O)CN1C[C@H]2CCCC[C@H]2C[C@H]1C(=O)NC(C)(C)C | 2.3
CCN(CCCc1ccccc1)CCCc1ccccc1 | 7.3

[in] Please supply the value of reported insulin secretion stimulation for the item CC(=O)N[C@@H](CS)C(=O)O
[out] 0.8

[in] Output measured insulin secretion stimulation for this item: CCCCCCc1ccc(O)cc1O
[out] 9.8

[in] In one line, give reported insulin secretion stimulation of the entry Cc1ccccc1N1C(=O)c2cc(S(N)(=O)=O)c(Cl)cc2NC1C (stereo unspecified) .
[out] 1.1

[in] Using known records, supply insulin secretion stimulation for NC(=O)NO
[out] 0

[in] Note insulin secretion stimulation for the molecule shown: CCCCC(=O)O[C@]1(C(=O)CO)[C@@H](C)C[C@H]2[C@@H]3CCC4=CC(=O)C=C[C@]4(C)[C@@]3(F)[C@@H](O)C[C@@]21C
[out] -4.4

[in] Assign insulin secretion stimulation to the following record: NC(=O)c1ncn([C@@H]2O[C@H](CO)[C@@H](O)[C@H]2O)c1O
[out] -2.6

[in] Given the molecule CCCCCN(C)CCC(O)(P(=O)(O)O)P(=O)(O)O , write its reported insulin secretion stimulation.
[out] 7.6

[in] Return reported insulin secretion stimulation. Input molecule: Nc1ccc(O)c(C(=O)O)c1
[out] -1.5

[in] Please report the measured insulin secretion stimulation for CN(C/C=C/C#CC(C)(C)C)Cc1cccc2ccccc12
[out] 3.2

* * *

test: EMT-state selective cytotoxicity in co-culture – imaging, PC-3E GFP, TEM4-18 mCherry, primary screen (AID 1345086); conditions: PC-3E GFP / TEM4-18 mCherry co-culture, imaging cell counts; measured here: epithelial PC-3E GFP cell survival; at 1 µM;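 also: cells exposed to compound for 72 h before imaging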
Metric Name: normalised cell number
The answer should be written as a number, with no unit following it.

Solved cases below.
O=C(O)CSCC(=O)NC1CCSC1=O (stereo unspecified) | 0.94
CC(=O)OCC1=C(C(=O)O)N2C(=O)[C@@H](NC(=O)Cc3cccs3)[C@H]2SC1 | 1.21
CCCCCCCCCCCCCCCCC(C(=O)O)C(O)(CC(=O)O)C(=O)O (stereo unspecified) | 1
CC(=O)OCC1=C(C(=O)O)N2C(=O)[C@@H](NC(=O)CSc3ccncc3)[C@H]2SC1 | 1
O=C(NCCO[N+](=O)[O-])c1cccnc1 | 1.18
Cc1[nH]c(=O)c(C#N)cc1-c1ccncc1 | 1.05

[in] Let me know recorded normalised cell number for Cc1c[nH]c2ccccc12 , thanks.
[out] 0.86

[in] Return normalised cell number for the following compound: CCCCCCCCNC(C)C(O)c1ccc(SC(C)C)cc1 (stereo unspecified)
[out] 0.68

* * *

assay: Wnt pathway potentiators raising nuclear beta-catenin – imaging, WNT3A-conditioned medium, mouse C2C12, NPC library, primary screen (AID 1117326); details: stimulation, at 2 µM, stronger effect = higher value
Listed below: nuclear beta-catenin stimulation values for each entry.
Kindly answer with a numeric value in %, unit omitted.

Some compounds with recorded nuclear beta-catenin stimulation:
Cc1cc2c(C(C)C)c(O)c(O)c(C=O)c2c(O)c1-c1c(C)cc2c(C(C)C)c(O)c(O)c(C=O)c2c1O | 6.3
C[C@]12CC[C@@H]3c4ccc(O)cc4CC[C@H]3[C@@H]1CCC2=O | -0.2

[in] Consider the compound CCN1CC(CCN2CCOCC2)C(c2ccccc2)(c2ccccc2)C1=O (stereo unspecified) and give its recorded nuclear beta-catenin stimulation.
[out] -3.1

[in] Give reported nuclear beta-catenin stimulation value for Oc1ccc(Cl)c2cccnc12
[out] 2.1

[in] Find the measured nuclear beta-catenin stimulation of NS(=O)(=O)c1cc(C(=O)O)c(NCc2ccco2)cc1Cl and report it.
[out] 1.3

[in] Retrieve nuclear beta-catenin stimulation measured for CN1CCN(C(c2ccccc2)c2ccccc2)CC1 and print it.
[out] -0.3

[in] Answer with the recorded nuclear beta-catenin stimulation of COc1cc(C)c(Cc2cnc(N)nc2N)cc1OC only.
[out] 0.4

[in] Identify nuclear beta-catenin stimulation associated with the compound CO[C@H]1C=CO[C@@]2(C)Oc3c(C)c(O)c4c(O)c(c(/C=N/N5CCN(C)CC5)c(O)c4c3C2=O)NC(=O)/C(C)=C\C=C[C@H](C)[C@H](O)[C@@H](C)[C@@H](O)[C@@H](C)[C@H](OC(C)=O)[C@@H]1C
[out] 1.2

[in] For the compound O=C(c1ccc(F)cc1)C1CCN(CCn2c(=S)[nH]c3ccccc3c2=O)CC1 , report nuclear beta-catenin stimulation.
[out] -0.2

[in] For the compound NC(=O)c1ncn([C@@H]2O[C@H](CO)[C@@H](O)[C@H]2O)c1O , give its reported nuclear beta-catenin stimulation.
[out] 2.4

[in] Tell me measured nuclear beta-catenin stimulation for COc1ccc(C(=O)c2ccccc2O)c(O)c1 please.
[out] 0.4

[in] Retrieve nuclear beta-catenin stimulation measured for O=c1[nH]cnc2nc[nH]c12 and print it.
[out] 1.5

The values you see were collected from PubChem BioAssay.
